Exercise: state measured polymerase ribozyme fitness (log ratio) for each of the variants provided.
B1: TPR 5TU (parent)
chain: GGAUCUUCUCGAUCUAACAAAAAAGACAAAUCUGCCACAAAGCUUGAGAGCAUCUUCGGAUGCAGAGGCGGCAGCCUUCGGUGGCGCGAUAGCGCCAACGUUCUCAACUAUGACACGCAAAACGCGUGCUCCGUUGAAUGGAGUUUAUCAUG

# Variants of: B1
# assay: polymerase ribozyme fitness, log enrichment relative to wild type (log ratio); higher = more active; in vitro selection for triplet polymerase activity
Variants at the floor of the assay were thinned out.
When you answer, write just the number.

Query block: Write down polymerase ribozyme fitness (log ratio) measured for item C35U G80A A91G G136A
Result block: -3.57

Query block: Write down polymerase ribozyme fitness (log ratio) measured for item C36G C105U
Result block: -3.04

Query block: Write down polymerase ribozyme fitness (log ratio) measured for item C57U C85U U146G
Result block: -1.44

Query block: Write down polymerase ribozyme fitness (log ratio) measured for item G62U G94A
Result block: -1.25

Query block: Write down polymerase ribozyme fitness (log ratio) measured for item U55A C85U C103U
Result block: -0.7

Query block: Write down polymerase ribozyme fitness (log ratio) measured for item G34C C87U
Result block: -3.33

Query block: Write down polymerase ribozyme fitness (log ratio) measured for item U56C C93U U101G C103U G136C
Result block: -4.09

Query block: Write down polymerase ribozyme fitness (log ratio) measured for item A91G C118G
Result block: -3.49

Query block: Write down polymerase ribozyme fitness (log ratio) measured for item U55A C57G A89U G136C
Result block: -3.69
